Test system: Puccinia recondita
protocol: Efficacy test against wheat brown rust, 1 mg/L (Experimental Example 10)
Format: in vivo
condition info: 1 g/ha (1 mg/L sprayed at 1,000 L/ha)
measured parameter: lesion degree

Reference set, count: 5
The recorded lesion degree for entry C[C@]1(CCl)CC[C@@H](Cc2ccccc2)[C@]1(O)Cn1cncn1 (racemic) equals 0.5 (Less than 1%)

The recorded lesion degree for entry C[C@]1(CCl)CC[C@@H](Cc2ccc(F)cc2F)[C@]1(O)Cn1cncn1 (relative stereo) equals 0.5 (Less than 1%)

The recorded lesion degree for entry C[C@]1(CCl)CC[C@@H](Cc2ccc(Cl)cc2)[C@]1(O)Cn1cncn1 (racemic) equals 0.5 (Less than 1%)

The recorded lesion degree for entry CC1(C)CCC(Cc2ccc(Cl)cc2)C1(O)Cn1ncnc1S (racemic) equals 5 (50% or higher)

The recorded lesion degree for entry CC1(C)CC[C@H](Cc2ccc(Cl)cc2)[C@@]1(O)Cn1cncn1 (racemic) [comparative compound (I), reference compound] equals 3 (10% or higher and less than 30%)

# ---- query molecule ----
The recorded lesion degree for entry C[C@]1(CCl)CC[C@@H](Cc2ccc(F)cc2)[C@]1(O)Cn1cncn1 (racemic) equals 0.5 (Less than 1%)
